Read-out: Interleukin-8 (IL8), CXCL8 (gene 3576)
Assay: BSK_LPS_IL8: BioMAP Diversity Plus: LPS Assay for Interleukin-8 (IL8) Biomarker Activity (AID 2283078)
Conditions: primary human HUVEC with PBMC; actives raise or lower the signal
The source made the active and inactive calls. How the source made its calls: active means hit-call score of the fitted dose curve at least 0.9, where 1 is the maximum; inactive means score below 0.9.

- STRUCTURE SMILES: "CN(C)c1ccccc1"
  outcome: "inactive"
- STRUCTURE SMILES: "CNC(=O)Oc1cccc2c1OC(C)(C)C2"
  outcome: "inactive"
- STRUCTURE SMILES: "OCCCl"
  outcome: "inactive"

---

Assay: APR_HepG2_MitoticArrest_72hr: Apredica 72-hour HepG2 Assay for Mitotic Arrest (AID 2282918)
Details: high-content imaging, actives raise or lower the signal
Activity calls are given as the source filed them. How the source made its calls: active means hit-call score of the fitted dose curve at least 0.9, where 1 is the maximum; inactive means score below 0.9.
Answer with one of the outcomes given here: 1 (yes) for active, 0 (no) for inactive

- COMPOUND: "CCCCCCCCn1sccc1=O"
  ASSIGNED CATEGORY: "1 (yes)"
- COMPOUND: "c1ccc(NNc2ccccc2)cc1"
  ASSIGNED CATEGORY: "1 (yes)"

How was CCOc1cccc(C2(N3CCN(c4ccccc4)CC3)CCC(C)CC2)c1 (stereo unspecified) classified in this test?
0 (no)

Also CO[C@@H]1[C@H](OC(=O)NC(=O)CCl)CC[C@]2(CO2)[C@H]1[C@@]1(C)O[C@@H]1CC=C(C)C ?
0 (no)

Also Oc1ccc2ccc3cccc4ccc1c2c34 ?
1 (yes)

Also ClC1=C(Cl)C2(Cl)C3C(Cl)C=CC3C1(Cl)C2(Cl)Cl (stereo unspecified) ?
1 (yes)

Also O=[N+]([O-])c1ccc(Oc2ccc(Cl)cc2Cl)cc1 ?
1 (yes)

Also ClC1=C(Cl)[C@]2(Cl)[C@H]3[C@H]([C@@H]4C=C[C@H]3C4)[C@@]1(Cl)C2(Cl)Cl ?
1 (yes)

Also COC(=O)c1ccccc1N ?
0 (no)

Also OCCCl ?
0 (no)

Also CNC(=O)Oc1cccc2c1OC(C)(C)C2 ?
0 (no)

Also c1ccc2c(c1)-c1cccc3cccc-2c13 ?
1 (yes)

Also CC(C)(O)c1cnn2c(-c3ccc(F)c(-c4c(F)cccc4C#N)c3)cnc2n1 ?
1 (yes)

Also Nc1ccc(Oc2ccc(N)cc2)cc1 ?
0 (no)

Also O=Cc1ccco1 ?
0 (no)

Also O=C(O)C1C2CCC(O2)C1C(=O)O (stereo unspecified) ?
1 (yes)

---

Read-out: Tissue plasminogen activator (tPA), PLAT (gene 5327)
Experiment: BSK_BE3C_tPA: BioMAP Diversity Plus: BE3C Assay for Tissue plasminogen activator (tPA) Biomarker Activity (AID 2283041)
Conditions: primary human bronchial epithelial cells; actives raise or lower the signal
Calls of active or inactive are those of the source. The calls were made as follows: active = hit-call score of the fitted dose curve at least 0.9, where 1 is the maximum; inactive = score below 0.9.
Answer with one of the outcomes given here: label 1 = active, label 0 = inactive

- MOLECULE: "CCCCOC(=O)c1ccccc1C(=O)OCc1ccccc1"
  ASSIGNED CATEGORY: "label 0"
- MOLECULE: "OCCCl"
  ASSIGNED CATEGORY: "label 0"
- MOLECULE: "Nc1ccc(Oc2ccc(N)cc2)cc1"
  ASSIGNED CATEGORY: "label 0"
- MOLECULE: "CC(C)(C)OOC(=O)c1ccccc1"
  ASSIGNED CATEGORY: "label 0"
- MOLECULE: "CCOc1cccc(C2(N3CCN(c4ccccc4)CC3)CCC(C)CC2)c1 (stereo unspecified)"
  ASSIGNED CATEGORY: "label 0"

Now look at this entry.
How was CCCCCCCCn1sccc1=O classified in this test?
label 1

---

Read-out: adenosine kinase (ADK) gene, ADK (gene 132)
Test: LTEA_HepaRG_ADK: Life Technologies and Expression Analysis (LTEA) Assay for adenosine kinase (ADK) gene using HepaRG (AID 2283471)
Conditions: mRNA level, 48 h; actives raise or lower the signal
Activity calls are given as the source filed them. The calls were made as follows: active = hit-call score of the fitted dose curve at least 0.9, where 1 is the maximum; inactive = score below 0.9.
Answer with one of the outcomes given here: True = active, False = inactive

How was CCC[CH2][Sn]([Cl])([CH2]CCC)[CH2]CCC classified in this test?
False

Also CNC(=O)Oc1cccc2c1OC(C)(C)C2 ?
False

Also O=C1CCCO1 ?
True

Also CS(=O)(=O)NC(=O)c1cc(Oc2ccc(C(F)(F)F)cc2Cl)ccc1[N+](=O)[O-] ?
False

---

Assay: ATG_DR4_LXR_CIS: Attagene CIS-FACTORIAL HepG2 Assay for human Liver X Receptor (LXR), DR4 submotif (AID 2282929)
Conditions: HepG2 Attagene DR4 cis-reporter, mRNA transcription; actives raise or lower the signal
Active and inactive are the calls of the source. Rule for the calls: active = hit-call score of the fitted dose curve at least 0.9, where 1 is the maximum; inactive = score below 0.9.
Answer with one of the outcomes given here: YES = active, NO = inactive

Worked set:
- COMPOUND: "CCC(C)c1ccc(O)cc1 (stereo unspecified)"
  ASSIGNED CATEGORY: "YES"
- COMPOUND: "O=C(Nc1ccccc1)c1ccccc1I"
  ASSIGNED CATEGORY: "YES"
- COMPOUND: "CC(C)N(Cc1ccccc1)C(=O)C(C)(C)C"
  ASSIGNED CATEGORY: "NO"
- COMPOUND: "COP(=S)(OC)SCN1C(=O)c2ccccc2C1=O"
  ASSIGNED CATEGORY: "NO"
- COMPOUND: "CC(C)(C)OOC(=O)c1ccccc1"
  ASSIGNED CATEGORY: "NO"
- COMPOUND: "c1ccc(N=Nc2ccccc2)cc1"
  ASSIGNED CATEGORY: "YES"
- COMPOUND: "c1ccc2c(c1)oc1ccccc12"
  ASSIGNED CATEGORY: "NO"
- COMPOUND: "CCN(CC)CCO"
  ASSIGNED CATEGORY: "NO"
- COMPOUND: "Nc1ccc(N=Nc2ccccc2)cc1"
  ASSIGNED CATEGORY: "NO"
- COMPOUND: "[O-][Cl+]O"
  ASSIGNED CATEGORY: "NO"

Now look at this entry.
How was Clc1ccc(Cl)c(Cl)c1 classified in this test?
NO

---

Read-out: adenosine kinase (ADK) gene, ADK (gene 132)
Assay: LTEA_HepaRG_ADK: Life Technologies and Expression Analysis (LTEA) Assay for adenosine kinase (ADK) gene using HepaRG (AID 2283471)
Conditions: mRNA level, 48 h; actives raise or lower the signal
Activity calls are given as the source filed them. The calls were made as follows: active = hit-call score of the fitted dose curve at least 0.9, where 1 is the maximum; inactive = score below 0.9.
Answer with one of the outcomes given here: yes (1) for active, no (0) for inactive

Worked set:
- COMPOUND: "OCCCl"
  ASSIGNED CATEGORY: "no (0)"
- COMPOUND: "Cn1cc(-c2ccccc2)c(=O)c(-c2cccc(C(F)(F)F)c2)c1"
  ASSIGNED CATEGORY: "no (0)"
- COMPOUND: "C=CCc1ccc2c(c1)OCO2"
  ASSIGNED CATEGORY: "no (0)"
- COMPOUND: "CCCSC(=O)N(CCC)CCC"
  ASSIGNED CATEGORY: "no (0)"
- COMPOUND: "O=C(N[C@H](c1ccccc1)[C@@H]1CN2CCC1CC2)c1c(Cl)ccc(C(F)(F)F)c1Cl"
  ASSIGNED CATEGORY: "yes (1)"
- COMPOUND: "CCC(C)c1ccc(O)cc1 (stereo not drawn)"
  ASSIGNED CATEGORY: "no (0)"
- COMPOUND: "CN(C)C(=O)Nc1ccc(Cl)cc1"
  ASSIGNED CATEGORY: "no (0)"
- COMPOUND: "O=[N+]([O-])c1ccc(Oc2ccc(Cl)cc2Cl)cc1"
  ASSIGNED CATEGORY: "no (0)"
- COMPOUND: "OCCOCCO"
  ASSIGNED CATEGORY: "no (0)"
- COMPOUND: "O=C(Oc1ccc(Br)cc1)N1CCN2CCC1CC2"
  ASSIGNED CATEGORY: "no (0)"

Now look at this entry.
How was Oc1ccc2ccc3cccc4ccc1c2c34 classified in this test?
no (0)

---

Read-out: adenosine kinase (ADK) gene, ADK (gene 132)
Assay: LTEA_HepaRG_ADK: Life Technologies and Expression Analysis (LTEA) Assay for adenosine kinase (ADK) gene using HepaRG (AID 2283471)
Settings: mRNA level, 48 h; actives raise or lower the signal
Active and inactive are the calls of the source. How the source made its calls: active means hit-call score of the fitted dose curve at least 0.9, where 1 is the maximum; inactive means score below 0.9.
Answer with one of the outcomes given here: TRUE (active), FALSE (inactive)

Worked set:
- COMPOUND: "Clc1ccc(C(c2ccc(Cl)cc2)C(Cl)(Cl)Cl)cc1"
  ASSIGNED CATEGORY: "FALSE"
- COMPOUND: "CN(C)c1ccccc1"
  ASSIGNED CATEGORY: "FALSE"
- COMPOUND: "CCOC(=O)[C@]1(c2ccccc2)Oc2ccccc2[C@@H]1N"
  ASSIGNED CATEGORY: "FALSE"
- COMPOUND: "CCCCOC(=O)c1ccccc1C(=O)OCc1ccccc1"
  ASSIGNED CATEGORY: "FALSE"
- COMPOUND: "CCCCCOC(=O)c1ccccc1C(=O)OCCCCC"
  ASSIGNED CATEGORY: "FALSE"

Now look at this entry.
How was CC(C)(O)c1cnn2c(-c3ccc(F)c(-c4c(F)cccc4C#N)c3)cnc2n1 classified in this test?
FALSE
